A collection of sequences and their measured apparent KD of MS2 coat protein
Tested on: MS2 coat protein
Test: apparent KD of MS2 coat protein, switch OFF state (with FMN for OFF switches, without FMN for ON switches); designed switch direction (-1 OFF switch, 1 ON switch): 1; higher = weaker reporter binding
Details: FMN input: 0 or 200 uM; Eterna round: R93 (includes R88 designs)

SEQUENCE_TEXT	SYSTEM	apparent KD of MS2 coat protein / nM
AUAAAUAAAAGAGAGGAUAUCCAAAAGAAAACAUGAGGAUCACCCAUGUGAAAGAAAAUAAAAUGGGAGAAGGCUCACAAUAAUA [Topaz 32]	MS2 coat protein	26
AGAAAAUAUGGGUAGGAUAUAUAAAGAGAAACAUGAGGAUCACCCAUGUAAAGACGAGAGUCAAAAUAGAAGGACUAAAGAAAGAA [Meechl MS2 SS2 2]	MS2 coat protein	151
AAAAGACAUGAGGAUCACCCAUGUAAAAACAUAGGAGGAUAUGUCGUGAAAAAAGACUUGGCAGAAGGCCUUUGUC [SS1 - 45]	MS2 coat protein	76.4
CCGAUGGUAUACUAGGAUAUGGGCGCCCUUACAUGAGGAUCACCCAUGUUAUCACAAAGCCGCGGCCAGAAGGAGUUCAUGGGAG [Tieronsove]	MS2 coat protein	122
CAACAGAGAGGACAGGAUAUGUCGUGAUAAACAUGAGGAUCACCCAUGUGAGACAUCACGUAGUCGCAGAAGGGUCCCGUCUUAC [Esleerandi]	MS2 coat protein	18.8
UAAAAACAUGAGGAUCACCCAUGUGAGAACAUGGGAGGAUAUACAAGGACGAAAGUCAAAGUAGAAGGCCUAAAAU [Mat - Same State 1 - Mod - D176]	MS2 coat protein	29.3
